- Test system: Human alphaherpesvirus 2
- Assay Comment: Effective concentration to inhibit 50 % of Herpes simplex virus type 2 replication in a cell culture model
- Measurement Parameters: Oryctolagus cuniculus
Recorded Metric: EC50

Inquiry: What value of EC50 on Human alphaherpesvirus 2 does CCOC(=O)c1c(C(=O)OCC)c(-c2ccc3c(c2)OCO3)c2c3c(ccc2c1O)OCO3 have?
Reply text: > 50 µM

----------
- Tested on: Human alphaherpesvirus 2
- Assay Comment: Effective concentration to inhibit 50 % of herpes simplex virus type 2 replication in a cell culture model;ND=Not determined
- Measurement Parameters: Oryctolagus cuniculus
Recorded Metric: EC50
Give the number first and the unit second.

Inquiry: Return reported EC50; argument: Nc1nc2c(ncn2COCCO)c(=O)[nH]1 [ACYCLOVIR]
Reply text: 51 µM
